Could you please report measured pIC50 for the items listed next?
biological target: CXCR3 (Homo sapiens, UniProt P49682); experiment: cell-based; set-up: expressed in transfected cells; host or cells: L1.2 cells (mouse pre-B cell line); conditions: CXCR3 transfected L1.2 cells (mouse pre B cell line); CXCR3 ligand (e.g. I-TAC); pre-incubation 2 h at room temperature; read-out: IC50, concentration of compound which reduces the maximal Ca2+ response to 50%
Sequence (P49682 whole entry): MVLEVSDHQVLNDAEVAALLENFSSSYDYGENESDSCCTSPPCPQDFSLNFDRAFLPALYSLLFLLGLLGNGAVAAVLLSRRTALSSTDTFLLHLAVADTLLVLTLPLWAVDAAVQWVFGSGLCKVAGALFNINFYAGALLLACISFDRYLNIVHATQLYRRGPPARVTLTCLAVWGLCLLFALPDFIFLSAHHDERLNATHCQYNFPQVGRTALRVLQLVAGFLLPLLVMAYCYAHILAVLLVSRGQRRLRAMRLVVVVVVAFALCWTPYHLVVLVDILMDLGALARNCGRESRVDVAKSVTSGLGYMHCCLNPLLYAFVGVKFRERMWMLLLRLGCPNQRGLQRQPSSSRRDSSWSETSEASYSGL
// pIC50 is dimensionless: -log10 of concentration (M)

The compound listed as O=C([C@@H]1C=C2c3cccc4[nH]cc(c34)C[C@H]2N(C(=O)Nc2ccccc2)C1)N1CCC1 [Example 23] shows pIC50 equal to 8.10

Lookup result for O=C([C@@H]1C=C2c3cccc4[nH]cc(c34)C[C@H]2N(C(=O)Nc2ccccc2F)C1)N1CCCC1 [Example 59] ; measured pIC50: 7.70

* * *

Molecular target: UniProt:P49682
Assay: cell-based
Set-up: expressed in transfected cells; host or cells: L1.2 cells (mouse pre-B cell line)
Experimental: b) CXCR3 Functional Assay—Ca^2+ Mobilization CXCR3 ligand-induced Ca^2+ mobilization is assessed in CXCR3 transfected L1.2 cells (a mouse pre B cell line). For this, cells are loaded with the Ca^2+-sensitive fluorochrome Fluo-4 (Molecular Probes). […] The transient increase in intracellular Ca^2+ after the addition of the CXCR3 ligand (e.g. I-TAC) is monitored in a fluorescence image plate reader (FLIPR) instrument. […]
QUANTITY: pIC50
In plain terms, pIC50 is the concentration in mol/L turned into minus its base-10 logarithm.

Reported pIC50 of CC(C)OC(=O)Cn1cc2c3c(cccc31)C1=C[C@@H](C(=O)N3CCCC3)CN(C(=O)Nc3ccccc3)[C@@H]1C2 : 7.28

Lab book: pIC50 of O=C([C@@H]1C=C2c3cccc4[nH]cc(c34)C[C@H]2N(C(=O)Nc2ccccc2)C1)N1CCOCC1 noted as 7.80

* * *

molecular target: CXCR3 (Homo sapiens, UniProt P49682); test: biochemical; assay type: binding; parameters: expressed in transfected cells; host or cells: CHO cells (membrane preparation); conditions: membranes of CHO cells transfected with human CXCR3; 125I I-TAC (CXCL11); 2 hours at room temperature; read-out: IC50, concentration of compound required to achieve 50% inhibition of 125I ligand binding
QUANTITY: IC50 (nM)
Give the quantity in nM, number only.

The reported IC50 of the compound O=C([C@@H]1C=C2c3cccc4[nH]cc(c34)C[C@H]2N(C(=O)Nc2ccccc2)C1)N1CCC1 was 61

Noted for O=C([C@@H]1C=C2c3cccc4[nH]cc(c34)C[C@H]2N(C(=O)Nc2ccccc2F)C1)N1CCCC1 : its IC50 reads 43

* * *

target: CXCR3 (Homo sapiens); assay: CXCR3 functional assay - chemotaxis; assay type: cell-based; design: expressed in transfected cells; host or cells: L1.2 cells (mouse pre-B cell line); settings: CXCR3 transfected L-1.2 cells; I-TAC; 4 h at 37° C.; read-out: IC50, concentration which leads to a reduction of migrated cells by 50%
QUANTITY: pIC50
API: returns pIC50 as number; meaning -log10 of concentration in mol/L.

For this compound ( O=C([C@@H]1C=C2c3cccc4[nH]cc(c34)C[C@H]2N(C(=O)Nc2ccccc2)C1)N1CCOCC1 ), measured pIC50 is 7.12

* * *

target: CXCR3 (Homo sapiens); experiment: biochemical; type: binding; set-up: expressed in transfected cells; host or cells: CHO cells (membrane preparation)
QUANTITY: IC50 (nM)
Field format: number, assumed nM, no unit text.

// IC50 value for O=C([C@@H]1C=C2c3cccc4[nH]cc(c34)C[C@H]2N(C(=O)Nc2ccccc2)C1)N1CCOCC1 : 23

IC50 reading for CC(C)OC(=O)Cn1cc2c3c(cccc31)C1=C[C@@H](C(=O)N3CCCC3)CN(C(=O)Nc3ccccc3)[C@@H]1C2 : 145
